assay: qHTS assay to identify small molecule antagonists of the sonic hedgehog signaling (Shh) pathway - cell viability counter screen (AID 1259367); conditions: NIH/3T3 Gli1-Luc viability, CellTiter-Fluor, 24 h; series mostly up to 42.5 µM; note: nearly all actives have a fitted effect of over 55% in size
Records with an inconclusive call do not appear. Active and inactive are the calls of the source. Calls come from the whole dose curve; as a rule, active = well fitted cell-killing curve with a large enough effect in the repeat runs; inconclusive = weak or mixed curves, or effect the other way; inactive = no such curve, though single readings can be large or run the other way.
Pick one and only one: active, inactive

Consider the worked cases shown below.
CCOC(=O)/C=C(C)/C=C/C=C(C)/C=C/c1c(C)cc(OC)c(C)c1C | inactive
COc1cc(/C=C/C(=O)O[C@H]2CC[C@]34C[C@]35CC[C@]3(C)[C@@H]([C@H](C)CCC=C(C)C)CC[C@@]3(C)[C@@H]5CC[C@H]4C2(C)C)ccc1O | inactive
CCCCCCCCCCCCCC[P+](CCCC)(CCCC)CCCC (tested in a mixture with another compound) | active
O=C(O)c1ccc(Cl)c(Cl)c1 | inactive

Let us examine a further case.
Request: I would be grateful if you could indicate the recorded call for "CCCCCCCC/C=C\CCCCCCCCOCCO" .
Response: active

* * *

assay: qHTS assay to identify small molecule agonists of the endoplasmic reticulum stress response signaling pathway - cell viability counter screen (AID 1159517); details: ESRE-bla HeLa viability, CellTiter-Glo luminescence, 5 h; series mostly up to 61 µM; note: nearly all actives have a fitted effect of over 50% in size; note: potency is the fitted concentration of half-maximal effect
Inconclusive results are not listed. Activity calls are given as the source filed them. Calls follow the shape of the full dose curve.
Endpoint: Potency

Use these answered entries as a reference point.
NC(=O)N1C(=O)C(C(=O)c2cc(Cl)cs2)c2cc(F)c(Cl)cc21 (configuration not stated) | inactive
CCCCCCCCCCCCCCCCCC[N+](C)(C)C | 49.1 µM (active)
CNC(=O)c1ccccc1 | inactive
CC1=C(/C=C/C(C)=C/C=C/C(C)=C/C=O)C(C)(C)CCC1 | 38.7 µM (active)
CCOC(=O)/C=C(C)/C=C/C=C(C)/C=C/c1c(C)cc(OC)c(C)c1C | inactive
CO[Si](CCCNc1ccccc1)(OC)OC | inactive
COc1cccc(N)c1 | inactive
CCN(CCC#N)c1ccc(N=Nc2c(Cl)cc([N+](=O)[O-])cc2Cl)cc1 | inactive
Nc1ccc(N)c2ccccc12 | 0.775 µM (active)
C[n+]1cc2c3c(ccc2c2ccc4cc5c(cc4c21)OCO5)OCO3 | 1.31 µM (active)

Request: # query: Potency of entry "CCOC(=O)O[C@]1(C(=O)OCCl)CC[C@H]2[C@@H]3CCC4=CC(=O)C=C[C@]4(C)[C@H]3[C@@H](O)C[C@@]21C"
Response: inactive

Request: Now give it for "O=C(Nc1cccc([N+](=O)[O-])c1)c1cc2ccccc2cc1O" too.
Response: inactive

* * *

test: qHTS assay to identify small molecule antagonists of the glucocorticoid receptor (GR) signaling pathway - cell viability counter screen (AID 720693); details: GR-bla HeLa viability, CellTiter-Glo luminescence, 18 h, with 5 nM dexamethasone present; series mostly up to 58.5 µM; note: nearly all actives have a fitted effect of over 55% in size
Results filed as inconclusive are left out. Activity calls are given as the source filed them. Calls follow the shape of the dose curve; as a rule, active = well fitted cell-killing curve with a large enough effect in the repeat runs; inconclusive = weak or mixed curves, or effect the other way; inactive = no such curve, though single readings can be large or run the other way.
Pick one and only one: active, inactive

Consider the worked cases shown below.
CCC(C)Nc1ccc(NC(C)CC)cc1 (stereo unspecified) | active
C1CCCC1 | inactive
O=C(NO)C1(NS(=O)(=O)c2ccc(Oc3ccc(F)cc3)cc2)CCOCC1 | inactive
OCCN1CCN(CC/C=C2/c3ccccc3Sc3ccc(C(F)(F)F)cc32)CC1 | inactive
Oc1cccc2cc3cccc(O)c3c(O)c12 | inactive
CN(C)[C@@H]1C(=O)C(C(N)=O)=C(O)[C@@]2(O)C(=O)C3=C(O)c4c(O)ccc(Cl)c4[C@@H](O)[C@H]3C[C@@H]12 | inactive
Clc1ccc2cc3ccccc3cc2c1 | inactive
CC/C(=C(\c1ccc(O)cc1)c1ccc(OCCN(C)C)cc1)c1ccccc1 | active
CCOc1nc2cccc(C(=O)OC(C)OC(=O)OC3CCCCC3)c2n1Cc1ccc(-c2ccccc2-c2nn[nH]n2)cc1 (stereo unspecified) | active
CCCN(CCC)c1c([N+](=O)[O-])cc(C(F)(F)F)c(N)c1[N+](=O)[O-] | active

Request: I would be grateful if you could indicate the recorded call for "O=S1(=O)CC(Cl)(Cl)C(Cl)(Cl)C1" .
Response: active
